Subject of test: recombinant full-length human alpha synuclein monomer (human, UniProt P37840 1-140)
Assay text: SPR, Biacore T200, as in Example 3; full-length IgG4P injected
Would you please tag the item T when its koff is 0.006 s⁻¹ or above, and F when it is below?

// below: answered binders
- Binder: "6470gL3gH36 IgG4P (antibody, V domains shown, Full-length humanized human IgG4P; also called VR6470 gL3; VR6470) VH: EVQLLESGGGLVQPGGSLRLSCAVSGIDLSSHDMYWVRQAPGKGLEYIGAIYASGSTYYASWAKGRFTISRDSSKNTLYLQMNSLRAEDTAVYYCARIHYGNSGGLWGQGTLVTVSS VL: DIQMTQSPSSLSASVGDRVTITCQASQSVYKNNYLAWFQQKPGKAPKQLIYGASTLASGVPSRFSGSGSGTQFTLTISSLQPEDFATYYCAGYKGGRNDGFAFGGGTKVEIKR"
  Assigned category: "T"
- Binder: "VR6470 gL3; gH36-S56N-N102H (antibody, human IgG4 S228P, kappa, V domains shown, Full-length humanized human IgG4P) VH: EVQLLESGGGLVQPGGSLRLSCAVSGIDLSSHDMYWVRQAPGKGLEYIGAIYASGNTYYASWAKGRFTISRDSSKNTLYLQMNSLRAEDTAVYYCARIHYGHSGGLWGQGTLVTVSS VL: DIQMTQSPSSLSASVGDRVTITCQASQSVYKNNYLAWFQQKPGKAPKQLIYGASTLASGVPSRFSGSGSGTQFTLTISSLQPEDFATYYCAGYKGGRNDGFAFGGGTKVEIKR"
  Assigned category: "F"
- Binder: "VR6470 gL3; gH23-S56N-N102H (antibody, human IgG4 S228P, kappa, V domains shown, Full-length humanized human IgG4P) VH: EVQLLESGGGLVQPGGSLRLSCAVSGIDLSSHDMYWVRQAPGKGLEYIGAIYASGNTYYASWAKGRFTISRDNSKNTVYLQMNSLRAEDTAVYYCARIHYGHSGGLWGQGTLVTVSS VL: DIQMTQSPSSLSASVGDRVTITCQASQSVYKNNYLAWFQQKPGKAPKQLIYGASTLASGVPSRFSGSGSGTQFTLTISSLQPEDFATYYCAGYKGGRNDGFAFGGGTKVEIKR"
  Assigned category: "F"
- Binder: "VR6470 gL3-N33R; gH36-S56N-N102H (antibody, human IgG4 S228P, kappa, V domains shown, Full-length humanized human IgG4P) VH: EVQLLESGGGLVQPGGSLRLSCAVSGIDLSSHDMYWVRQAPGKGLEYIGAIYASGNTYYASWAKGRFTISRDSSKNTLYLQMNSLRAEDTAVYYCARIHYGHSGGLWGQGTLVTVSS VL: DIQMTQSPSSLSASVGDRVTITCQASQSVYKNRYLAWFQQKPGKAPKQLIYGASTLASGVPSRFSGSGSGTQFTLTISSLQPEDFATYYCAGYKGGRNDGFAFGGGTKVEIKR"
  Assigned category: "T"

koff >= 0.006 s⁻¹ for 6470gL3gH23 IgG4P (antibody, V domains shown, Full-length humanized human IgG4P; also called VR6470 gL3) VH: EVQLLESGGGLVQPGGSLRLSCAVSGIDLSSHDMYWVRQAPGKGLEYIGAIYASGSTYYASWAKGRFTISRDNSKNTVYLQMNSLRAEDTAVYYCARIHYGNSGGLWGQGTLVTVSS VL: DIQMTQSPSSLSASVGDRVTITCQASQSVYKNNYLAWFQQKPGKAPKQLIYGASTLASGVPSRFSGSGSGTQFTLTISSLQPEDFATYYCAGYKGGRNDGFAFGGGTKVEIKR ?
T
